Test system: K-562 leukemia
Test: NCI tumour cell line growth inhibition, 48 h
Assay Endpoint: TGI

Compound	Measured On	Recorded Result
S=C(Nc1ccc(-c2nc3ccccc3s2)cc1)Nc1ccc(-c2nc3ccccc3s2)cc1	K-562 leukemia	87.6 µM
CCOC(=O)NN1C(=O)C(=P(c2ccccc2)(c2ccccc2)c2ccccc2)C(C(=O)OC)=C1C	K-562 leukemia	> 100 µM
Cc1cc(C)nc(NC(=O)COc2ccc(Cl)cc2)c1	K-562 leukemia	> 100 µM
O=C(NC1=C(Cl)C(=O)c2ccccc2C1=O)C(=O)c1c(O)c2ccccc2oc1=O	K-562 leukemia	> 100 µM
CC(C)(C1=NC(C(C)(C)C)CO1)C1=N[C@@H](C(C)(C)C)CO1 (stereo partly specified)	K-562 leukemia	> 100 µM

Q. Form field: TGI recorded for CC1(C)CC(=O)C2=C(C1)NC(=S)C(C#N)C2c1ccccc1 (stereo unspecified) with K-562 leukemia (enter value)
A. > 100 µM

Q. Likewise for `O=C(C#Cc1ccccc1)NC/C=C/c1ccccc1` ?
A. > 100 µM

Q. Likewise for COc1cccc(C2C(C#N)=C(N)Oc3cc(OCCCCCC[P+](c4ccccc4)(c4ccccc4)c4ccccc4)ccc32)c1 (stereo unspecified) ?
A. > 23.7 µM

Q. Likewise for `COc1ccc(Cn2c(=O)c(OS(=O)(=O)C(F)(F)F)c(C)c3cc4ccccc4cc32)cc1` ?
A. > 100 µM

Q. Likewise for CC(NC1CCCC[C@@H]1O)c1ccccc1 (stereo partly specified) ?
A. > 100 µM

Q. Likewise for COc1c2c(c(O)c3c4c(c(C)cc13)C1OC3(C(OC)OC5CC(C)(O)C(OC6CC(C)(O)C(O)C(C)O6)C(C)O5)OC1C(OC)(O4)C31CO1)C(=O)C(O)CC2OC1CC(C)(O)C(OC(C)=O)C(C)O1 (stereo unspecified) ?
A. 1.66 µM

Q. Likewise for `Cc1nc(Nc2ccc(Cl)cc2)sc1C(=O)Nc1cccc2c(=O)[nH][nH]c(=O)c12` ?
A. 47.3 µM
